Assay: qHTS assay to identify small molecule antagonists of the TGF-beta/Smad signaling pathway - cell viability counter screen (AID 1346824); further: nearly all actives have a fitted effect of over 50% in size
Conditions: SBE-bla HEK293T viability, CellTiter-Glo luminescence; series mostly up to 76.8 µM
Results filed as inconclusive are left out. Calls of active or inactive are those of the source. The call rests on the fitted dose curve; in most records, active means well fitted cell-killing curve with a large enough effect in the repeat runs; inconclusive means weak or mixed curves; inactive means flat fitted curve, though single readings scatter.
Possible outcomes: true (active), false (inactive)

| molecule | classification |
| --- | --- |
| CN(C)C(=S)SC(=S)N(C)C | false |
| CN1CCC[C@H]1c1cccnc1 | false |
| CC(C)NCC(O)c1ccc(O)c(O)c1 (stereo not given) | false |
| COc1ccc(CN(CCN(C)C)c2ccccn2)cc1 | false |
| CN(C)C(=O)Nc1ccc(Cl)c(Cl)c1 | false |
| C1CCC(C(CC2CCCCN2)C2CCCCC2)CC1 (stereo not given) | true |
| Cc1ccc(S(=O)(=O)O)cc1 | false |
| C/C=C/C=C/C(=O)O | false |
| CCCCC(CC)C(=O)O (stereo not given) | false |
| COc1ccc(C(Cl)=C(c2ccc(OC)cc2)c2ccc(OC)cc2)cc1 | false |
| C[C@](N)(Cc1ccc(O)c(O)c1)C(=O)O | false |
| Cc1c(C(=O)O)c(O)cc2c1C(=O)c1c(O)c([C@@H]3O[C@H](CO)[C@@H](O)[C@H](O)[C@H]3O)c(O)c(O)c1C2=O | false |
| O=C1NS(=O)(=O)c2ccccc21 | false |
| COc1ccc(OC(F)(F)F)cc1CN[C@H]1CCCN[C@H]1c1ccccc1 | false |
| Cc1ncc([N+](=O)[O-])n1CCO | false |
| Nc1ccc(O)c([N+](=O)[O-])c1 | false |
| NC(=O)n1c(O)c(C(=O)c2cccs2)c2cc(Cl)ccc21 | false |
| COc1cccc(O)c1O | false |
| CCCCC1(COC(=O)CCC(=O)O)C(=O)N(c2ccccc2)N(c2ccccc2)C1=O | false |
| O=CC(=O)c1ccccc1 | false |
| O=c1[nH]cc(F)c(=O)[nH]1 | false |
| COc1ccc2c(c1)c(CC(=O)O)c(C)n2C(=O)c1ccc(Cl)cc1 | false |
| CCOc1ccc(NC(C)=O)cc1 | false |
| CNNCc1ccc(C(=O)NC(C)C)cc1 | false |
| CC(=O)C(=O)O | false |

---

Assay: qHTS assay to identify small molecule antagonists of the estrogen related receptor signaling pathway with the pleiotropic PPARgamma coactivator (PGC) cell viability counter screen (AID 1224822;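 further: viability read after 17.5 h compound exposure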)
Settings: ERR/PGC reporter cell line viability counter screen; series mostly up to 46.1 µM
Inconclusive results are not listed. Active and inactive are the calls of the source. Calls follow the shape of the dose curve; as a rule, active = well fitted cell-killing curve with a large enough effect in the repeat runs; inconclusive = weak or mixed curves, or effect the other way; inactive = flat fitted curve, though single readings scatter.
Possible outcomes: y = active, n = inactive

| compound | classification |
| --- | --- |
| CC/C(=C(\c1ccccc1)c1ccc(OCCN(C)C)cc1)c1ccccc1 | y |
| CN(C)CCOC(c1ccccc1)c1ccccc1 | n |
| O=c1[nH]cc(F)c(=O)[nH]1 | n |
| C1=CC2C3C=CC(C3)C2C1 (configuration not stated) | n |
| CC(C)c1c(C(=O)Nc2ccccc2)c(-c2ccccc2)c(-c2ccc(F)cc2)n1CC[C@@H](O)C[C@@H](O)CC(=O)O | n |
| O=C1NC(=O)C(c2ccccc2)(c2ccccc2)N1 | n |
| Cc1cn([C@H]2C=C[C@@H](CO)O2)c(=O)[nH]c1=O | n |
| CN[C@H]1CC[C@@H](c2ccc(Cl)c(Cl)c2)c2ccccc21 | n |
| CCCCNC(=O)NS(=O)(=O)c1ccc(C)cc1 | n |
| Cn1c(=O)c2c(ncn2C)n(C)c1=O | n |
| Nc1ccc(O)c([N+](=O)[O-])c1 | n |
| COc1ccc(CN(CCN(C)C)c2ccccn2)cc1 | n |

---

Assay: qHTS assay to identify small molecule antagonists of the retinoid-related orphan receptor gamma (ROR-gamma) signaling pathway - cell viability counter screen (AID 1159520); further: nearly all actives have a fitted effect of over 50% in size
Settings: Tet-on RORgamma CHO cells viability, ATP luminescence, 16 h; series mostly up to 92.4 µM
Records with an inconclusive call do not appear. Calls of active or inactive are those of the source. Calls follow the shape of the dose curve; as a rule, active = well fitted cell-killing curve with a large enough effect in the repeat runs; inconclusive = weak or mixed curves, or effect the other way; inactive = no such curve, though single readings can be large or run the other way.
Possible outcomes: T for active, F for inactive

| compound | classification |
| --- | --- |
| C=C(C)C(=O)OCC(C)O (stereo not drawn) | F |
| CN(C)C(=S)SC(=S)N(C)C | T |
| CC(=O)CCC(=O)O | F |
| O=C1NC(=O)C(c2ccccc2)(c2ccccc2)N1 | F |
| CN(N=O)C(=O)N[C@@H]1[C@@H](O)[C@H](O)[C@@H](CO)O[C@@H]1O | F |
| Cc1ccc(S(=O)(=O)O)cc1 | F |
| Cc1cc(=O)oc2cc(O)ccc12 | F |
| CNNCc1ccc(C(=O)NC(C)C)cc1 | F |

---

Assay: qHTS assay for small molecules that induce genotoxicity in human embryonic kidney cells expressing luciferase-tagged ATAD5 - cell viability (AID 651634); further: nearly all actives have a fitted effect of over 25% in size
Conditions: HEK293T ATAD5-luc cells viability, CellTiter-Fluor, 15.5 h; series mostly up to 83.3 µM
Inconclusive results are not listed. Activity calls are given as the source filed them. The call rests on the fitted dose curve.
Possible outcomes: true (1) for active, false (0) for inactive

| compound | classification |
| --- | --- |
| COc1ccc2c(c1)c(CC(=O)O)c(C)n2C(=O)c1ccc(Cl)cc1 | false (0) |
| COc1ccc(OC(F)(F)F)cc1CN[C@H]1CCCN[C@H]1c1ccccc1 | false (0) |
| O=C1O[C@H]([C@@H](O)CO)C(O)=C1O | false (0) |
| CC(=O)Nc1c(I)c(NC(C)=O)c(I)c(C(=O)O)c1I | false (0) |
| CNNCc1ccc(C(=O)NC(C)C)cc1 | false (0) |
| CN(C)CCOC(c1ccccc1)c1ccccc1 | false (0) |
| NS(=O)(=O)c1cc2c(cc1Cl)NCNS2(=O)=O | false (0) |
| Cc1cc(C)nc(NS(=O)(=O)c2ccc(N)cc2)n1 | false (0) |
| Cc1ncc([N+](=O)[O-])n1C | false (0) |
| CC(=O)CC(c1ccccc1)c1c(O)c2ccccc2oc1=O (stereo not drawn) | false (0) |
| CN(N=O)C(=O)N[C@@H]1[C@@H](O)[C@H](O)[C@@H](CO)O[C@@H]1O | false (0) |
| CCCc1cc(=O)[nH]c(=S)[nH]1 | false (0) |
| CCCCOC(=O)c1ccc(O)cc1 | false (0) |
| Cc1cc(=O)oc2cc(O)ccc12 | false (0) |
| C=C(C)C(=O)OCC(C)O (stereo not drawn) | false (0) |
| Nc1ccc([N+](=O)[O-])cc1O | true (1) |
| O=C1c2c(O)cccc2Cc2cccc(O)c21 | false (0) |
| C/C=C/C=C/C(=O)O | false (0) |
| Nc1ccc(O)c([N+](=O)[O-])c1 | true (1) |
| O=C(Nc1ncc([N+](=O)[O-])s1)c1cccs1 | true (1) |
| O=C1NC(=O)C(c2ccccc2)(c2ccccc2)N1 | false (0) |
| Cc1ncc([N+](=O)[O-])n1CCO | false (0) |
| O=c1[nH]cnc2c1ncn2[C@H]1CC[C@@H](CO)O1 | false (0) |
| CC12CCC(CC1)C(C)(C)O2 | false (0) |
| CN[C@H]1CC[C@@H](c2ccc(Cl)c(Cl)c2)c2ccccc21 | false (0) |
| NC(CO)(CO)CO | false (0) |
| O=C1NS(=O)(=O)c2ccccc21 | false (0) |
| Cc1ccc(S(=O)(=O)O)cc1 | false (0) |

---

Target: Peroxisome proliferator-activated receptor gamma (Homo sapiens) (UniProt P37231)
Sequence (P37231 whole entry, looked up): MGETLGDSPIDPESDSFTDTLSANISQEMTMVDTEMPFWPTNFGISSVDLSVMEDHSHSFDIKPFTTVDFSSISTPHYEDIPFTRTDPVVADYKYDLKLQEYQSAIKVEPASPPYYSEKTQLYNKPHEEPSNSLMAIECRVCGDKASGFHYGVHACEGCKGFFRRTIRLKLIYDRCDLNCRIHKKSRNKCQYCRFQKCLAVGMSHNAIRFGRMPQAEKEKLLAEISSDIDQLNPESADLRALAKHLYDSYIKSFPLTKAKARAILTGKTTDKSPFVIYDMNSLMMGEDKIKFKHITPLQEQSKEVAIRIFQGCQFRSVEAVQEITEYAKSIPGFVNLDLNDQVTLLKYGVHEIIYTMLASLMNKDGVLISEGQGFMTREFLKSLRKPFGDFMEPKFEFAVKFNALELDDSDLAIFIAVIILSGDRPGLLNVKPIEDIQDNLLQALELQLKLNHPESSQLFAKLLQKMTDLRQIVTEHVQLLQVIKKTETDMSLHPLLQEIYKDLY
Experiment: qHTS assay to identify small molecule agonists of the peroxisome proliferator-activated receptor gamma (PPARg) signaling pathway (AID 743094); on activation: on the % scale 0 is the no-effect control and ±100 the full control effect
Conditions: HEK293H PPARg-UAS-bla, beta-lactamase FRET ratio, 17 h; series mostly up to 57 µM
Records with an inconclusive call do not appear. Active and inactive are the calls of the source. Calls follow the shape of the dose curve; as a rule, active = well fitted activation curve with a large enough effect in the signal ratio in the repeat runs (not every such curve was filed as active); inconclusive = weak or mixed curves, or effect the other way; inactive = no such curve, though single readings can be large or run the other way; the % refers to the signal ratio.
Possible outcomes: active, inactive

| compound | classification |
| --- | --- |
| Cc1cc(=O)oc2cc(O)ccc12 | active |
| O=C(O)c1ccccc1 | inactive |
| CC1(C)S[C@@H]2[C@H](NC(=O)[C@H](N)c3ccccc3)C(=O)N2[C@H]1C(=O)O | inactive |
| CCCCC(CC)C(=O)O (configuration not stated) | inactive |
| Nc1c(N=Nc2ccc(-c3ccc(N=Nc4cc(S(=O)(=O)O)c5ccccc5c4N)cc3)cc2)cc(S(=O)(=O)O)c2ccccc12 | inactive |
| Cc1cccc(C)c1 | inactive |
| O=CC(=O)c1ccccc1 | inactive |
| CC12CCC(CC1)C(C)(C)O2 | inactive |
| NS(=O)(=O)O | inactive |
| CC(=O)CCC(=O)O | inactive |
| CN(C)C(=O)Nc1ccc(Cl)c(Cl)c1 | inactive |
| Cc1ncc([N+](=O)[O-])n1CCO | inactive |
| CC(C)C(=O)Nc1ccc([N+](=O)[O-])c(C(F)(F)F)c1 | inactive |
| NS(=O)(=O)c1cc2c(cc1Cl)NCNS2(=O)=O | inactive |
| CCCCC1(COC(=O)CCC(=O)O)C(=O)N(c2ccccc2)N(c2ccccc2)C1=O | inactive |
| CN1CCC[C@H]1c1cccnc1 | inactive |
| F[B-](F)(F)F | inactive |
| O=c1[nH]cnc2c1ncn2[C@H]1CC[C@@H](CO)O1 | inactive |
| CS(=O)(=O)OCCCCOS(C)(=O)=O | inactive |
| Cc1cc(C)nc(NS(=O)(=O)c2ccc(N)cc2)n1 | inactive |
| Nc1c2c(nc3ccccc13)CCCC2 | inactive |
| CC1(C)O[C@@H]2C[C@H]3[C@@H]4CCC5=CC(=O)C=C[C@]5(C)[C@@]4(F)[C@@H](O)C[C@]3(C)[C@]2(C(=O)CO)O1 | inactive |
